Catalogue of compounds with associated AC50
Target: Replicative DNA helicase DnaB (Mycobacterium tuberculosis, UniProt P9WMR3)
Sequence (P9WMR3 1-399, added parts left off): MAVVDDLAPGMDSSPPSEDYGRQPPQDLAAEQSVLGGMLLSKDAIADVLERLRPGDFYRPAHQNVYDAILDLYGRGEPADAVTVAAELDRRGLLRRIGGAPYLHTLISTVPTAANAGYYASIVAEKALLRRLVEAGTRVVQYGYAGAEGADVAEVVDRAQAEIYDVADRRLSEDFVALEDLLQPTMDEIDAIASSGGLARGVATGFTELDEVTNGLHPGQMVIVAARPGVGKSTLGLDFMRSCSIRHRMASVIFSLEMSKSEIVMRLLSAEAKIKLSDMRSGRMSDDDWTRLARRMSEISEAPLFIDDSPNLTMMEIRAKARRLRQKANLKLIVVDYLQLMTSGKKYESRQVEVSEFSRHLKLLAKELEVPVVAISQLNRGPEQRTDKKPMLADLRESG
Assay: DnaB intein splicing inhibitors, dose response, biochemical, cell-free fluorescence (AID 449749)
Format: functional
Activity calls are given as the source filed them. Rule as the data show it: actives have a measured AC50 and inactives only a lower limit.

Example compounds with recorded AC50:
>  <compound>
N#CC1=C(N)Oc2[nH]nc(-c3ccncc3)c2C1c1ccsc1 (stereo unspecified)

>  <result>
13.4 µM (active)

$$$$
>  <compound>
O=S(=O)(c1ccc(Cl)cc1)c1snnc1-c1ccccc1

>  <result>
23.9 µM (active)

$$$$
>  <compound>
CCOc1cc(C(c2c(C)[nH][nH]c2=O)c2c(C)[nH][nH]c2=O)cc([N+](=O)[O-])c1O

>  <result>
0.299 µM (active)

$$$$

# AC50 of "CC(C)(C)OC(=O)N/N=C\c1ccc(OC(=O)c2ccco2)cc1" = 34.5 µM (active)

Reported AC50 ( "CC(=O)Nc1ccccc1NC(=O)C/C(C)=N/NC(=O)C(=O)N1CCCCC1" ) = 5.84 µM (active)

Reported AC50 of "C=CCOc1ccccc1CN(C(=O)CCl)c1ccc2c(c1)OCO2" : 2.37 µM (active)

Form field AC50, entry "COc1ccc(-c2nnc(Sc3nc4ccccc4o3)c3ccccc23)cc1" : 3.8 µM (active)

# AC50 of "O=C(Cc1cc(O)n[nH]1)N/N=C/c1c(F)cccc1Cl" = 1.87 µM (active)

Lookup result for "CCN(Cc1ccc(OC)c(F)c1)C(=O)CCl" ; measured AC50: 162 µM (active)

GET /value?item= N#CC1=C(N)Oc2[nH]nc(-c3cccs3)c2C1c1ccccc1C(=O)O (stereo unspecified) &field=AC50 returns 2.69 µM (active)

Looking up "CC(=O)NC1=C(Nc2ccc(N(C)C)cc2)C(=O)c2ccccc2C1=O" , I found its AC50 recorded as 34.5 µM (active)
